residual binding, % of no competitor by entry:
target: T1, cMetECDHis (human, UniProt P08581 25-932, limits assumed, biotinylated in the cross-block ELISA of Example 17); assay: cross-block ELISA; competitor 008
T1 construct: Expressed in HEK-293F cells; also called soluble cMetECDHis; biotinylated cMetECDHis
property-measured: residual binding, % of no competitor

binder="anti-c-Met HuMab 008 (IgG1) (antibody, V domains shown, also called TH1016-008; PC1016-008) VH: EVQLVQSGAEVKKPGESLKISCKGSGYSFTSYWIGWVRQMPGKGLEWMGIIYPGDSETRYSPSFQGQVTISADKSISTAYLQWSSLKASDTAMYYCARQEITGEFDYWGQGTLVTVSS VL: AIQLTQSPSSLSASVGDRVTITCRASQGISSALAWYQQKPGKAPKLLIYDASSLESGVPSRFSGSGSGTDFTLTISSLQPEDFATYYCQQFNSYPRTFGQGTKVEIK" reported_result=5.4%
binder="anti-c-Met HuMab 035 (IgG1) (antibody, V domains shown, also called P1016-035; TH1016-035-D09) VH: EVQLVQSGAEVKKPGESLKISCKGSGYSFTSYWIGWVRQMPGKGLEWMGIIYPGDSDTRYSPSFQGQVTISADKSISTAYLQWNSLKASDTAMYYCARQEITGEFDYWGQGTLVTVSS VL: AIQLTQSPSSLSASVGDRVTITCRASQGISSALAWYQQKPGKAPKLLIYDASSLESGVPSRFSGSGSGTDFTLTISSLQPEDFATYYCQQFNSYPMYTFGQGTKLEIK" reported_result=7.2%
binder="anti-c-Met HuMab 005 (IgG1) (antibody, V domains shown, also called TH1016-005; PC1016-005) VH: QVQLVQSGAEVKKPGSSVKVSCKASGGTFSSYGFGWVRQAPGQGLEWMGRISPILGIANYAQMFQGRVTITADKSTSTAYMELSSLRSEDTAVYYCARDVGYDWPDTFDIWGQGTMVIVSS VL: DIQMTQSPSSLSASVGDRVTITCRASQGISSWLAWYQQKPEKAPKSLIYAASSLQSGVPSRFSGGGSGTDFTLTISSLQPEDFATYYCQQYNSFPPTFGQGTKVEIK" reported_result=81.9%
